tested-on: Sphingosine 1-phosphate receptor 3 (Homo sapiens, UniProt Q99500)
Sequence (Q99500 whole entry): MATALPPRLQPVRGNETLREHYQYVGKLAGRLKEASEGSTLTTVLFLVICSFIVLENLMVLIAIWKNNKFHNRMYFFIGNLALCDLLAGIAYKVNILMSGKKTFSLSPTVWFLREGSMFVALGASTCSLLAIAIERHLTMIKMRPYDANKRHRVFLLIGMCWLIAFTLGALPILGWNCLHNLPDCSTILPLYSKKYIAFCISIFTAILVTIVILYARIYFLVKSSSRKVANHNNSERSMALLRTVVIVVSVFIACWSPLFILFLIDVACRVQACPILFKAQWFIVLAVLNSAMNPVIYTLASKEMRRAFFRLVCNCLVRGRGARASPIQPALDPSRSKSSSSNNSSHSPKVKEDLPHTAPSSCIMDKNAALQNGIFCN
assay-comment: Agonist activity at human S1P3 receptor assessed as effect on calcium mobilization by Gi dependent whole cell assay
Format: functional
quantity-name: EC50

Guide cases for EC50, answers given:
# molecule, EC50
records = [
    ("CCCCCCCCc1ccc2c(c1)CC[C@H]([C@](C)(N)COP(=O)(O)O)C2", "> 5000 nM"),
    ("CCCCCCCCc1ccc2c(c1)CC[C@@H](C(N)(CO)COP(=O)(O)O)C2 (stereo in doubt)", "> 5000 nM"),
    ("CCCCCCCCCCCCC/C=C/[C@@H](O)[C@@H](N)COP(=O)(O)O", "0.449 nM"),
    ("CCCCCCCCc1ccc2c(c1)CC[C@@H](C(N)(CO)COP(=O)(O)O)C2 (single isomer, unassigned; isomer 1)", "0.215 nM"),
    ("CCCCCCCCc1ccc2c(c1)CC[C@@H]([C@@](C)(N)COP(=O)(O)O)C2", "0.15 nM"),
    ("CCCCCCCCc1ccc2c(c1)CC[C@H]([C@@](C)(N)COP(=O)(O)O)C2", "0.286 nM"),
]

Looking up CCCCCCCCc1ccc2c(c1)CC[C@@H]([C@](C)(N)COP(=O)(O)O)C2 , I found its EC50 recorded as > 5000 nM
